# IC50 listing for each entry below
# target.system: Neuronal acetylcholine receptor subunit alpha-7 (Rattus norvegicus)
# protocol.notes: Binding affinities for the alpha 7 nicotinic acetylcholine receptor was determined in PC12 cells
# Format: cell-based, PC-12

| compound | IC50 |
| --- | --- |
| c1ccc2cc(COC3CN4CCC3CC4)ccc2c1 (configuration not stated) | 150 nM |

Could you now look at the following compound, please?
API: value(readout=IC50, system=Neuronal acetylcholine receptor subunit alpha-7 (Rattus norvegicus)) for record c1ccc2c(COC3CN4CCC3CC4)cccc2c1 (configuration not stated)
730 nM

====

Parameter: IC50. Scope: all listed entries.
# target.system: Neuronal acetylcholine receptor subunit alpha-7 (Rattus norvegicus, UniProt Q05941)
# Sequence (Q05941 whole entry): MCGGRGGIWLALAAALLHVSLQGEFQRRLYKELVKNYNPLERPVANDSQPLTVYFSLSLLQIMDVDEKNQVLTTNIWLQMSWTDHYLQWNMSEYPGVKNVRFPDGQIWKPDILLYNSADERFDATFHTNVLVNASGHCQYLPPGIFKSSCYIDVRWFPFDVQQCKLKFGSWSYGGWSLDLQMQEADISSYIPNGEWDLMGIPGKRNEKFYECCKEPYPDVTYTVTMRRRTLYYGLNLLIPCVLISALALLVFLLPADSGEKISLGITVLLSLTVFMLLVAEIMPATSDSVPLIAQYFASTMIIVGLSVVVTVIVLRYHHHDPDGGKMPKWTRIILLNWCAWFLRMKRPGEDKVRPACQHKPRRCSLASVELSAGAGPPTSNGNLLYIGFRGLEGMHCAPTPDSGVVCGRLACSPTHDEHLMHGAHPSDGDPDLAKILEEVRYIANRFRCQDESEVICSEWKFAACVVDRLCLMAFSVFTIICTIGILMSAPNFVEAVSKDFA
# protocol.notes: Alpha 7 nicotinic acetylcholine receptor binding activity in PC12 cells
# Assay type: cell-based, PC-12
# output: bare number, implied unit nM

Here are 4 compounds together with their reported answers.
| compound | measurement.unit | IC50 |
| --- | --- | --- |
| c1ccc2sc(CCC3CN4CCC3CC4)cc2c1 (stereo in doubt; 16b) | nM | 23 |
| O=C(CC1CN2CCC1CC2)c1cc2ccccc2s1 (single isomer, unassigned; (+)) | nM | 130 |
| c1ccc2sc(CO[C@@H]3CN4CCC3CC4)cc2c1 | nM | 26 |
| O=C(CC1CN2CCC1CC2)c1cc2ccccc2s1 (stereo in doubt; 15b) | nM | 150 |

Now turn to the next compound.
// returns reported IC50 for input O=C(CC1CN2CCC1CC2)c1cc2ccccc2s1 (single isomer, unassigned; (-))
170

====

# target.system: Neuronal acetylcholine receptor subunit alpha-7 (Rattus norvegicus)
# protocol.notes: Alpha 7 nicotinic acetylcholine receptor binding activity in PC12 cells
# Type: cell-based, PC-12
Items are presented alongside their recorded IC50.
Answer with a number only, understood to be in nM.

Worked cases, answers included:
| compound | target.system | endpoint | quantitative.readout |
| --- | --- | --- | --- |
| O=C(c1cc2ccccc2s1)C1CN2CCC1CC2 (stereo not drawn) | Neuronal acetylcholine receptor subunit alpha-7 (Rattus norvegicus) | IC50 | 950 |
| c1ccc2sc(CO[C@H]3CN4CCC3CC4)cc2c1 | Neuronal acetylcholine receptor subunit alpha-7 (Rattus norvegicus) | IC50 | 515 |

Next compound, IC50 to be filled in.
I'd like to know its IC50. The compound in question is c1ccc2sc(CC3CN4CCC3CC4)cc2c1 (stereo not drawn)
110

====

Reported Cmax values follow for various compounds
# protocol.notes: Cmax wa determined in rat plasma at 30 mg/kg after po administration
# Format: ADME, organism-based
# Set-up: dose 30 mg/kg, route oral
Return type: number; implicit unit ng/mL.

| compound | measurement.unit | Cmax |
| --- | --- | --- |
| O=C(CC1CN2CCC1CC2)c1cc2ccccc2s1 (stereo in doubt; 15b) | ng/mL | 270 |

Read the next record carefully.
Given c1ccc2sc(CCC3CN4CCC3CC4)cc2c1 (stereo in doubt; 16b) , state its recorded Cmax.
450

====

# target.system: Neuronal acetylcholine receptor subunit alpha-7 (Rattus norvegicus, UniProt Q05941)
# protocol.notes: Alpha 7 nicotinic acetylcholine receptor binding activity in PC12 cells
# Format: cell-based, PC-12
pIC50: −log10 of the molar value.
pIC50 below 7 gives label 0; pIC50 at or above it gives label 1.

Completed entries (count: 3):
| molecule | label.value |
| --- | --- |
| c1ccc2sc(COC3CN4CCC3CC4)cc2c1 (stereo not given) | label 1 |
| c1ccc2sc(CCCC3CN4CCC3CC4)cc2c1 (stereo not given) | label 0 |
| COc1ccc(Cc2cccnc2-c2cccnc2)c(OC)c1 | label 0 |

Hello, I need to know if c1ccc2sc(CCC3CN4CCC3CC4)cc2c1 (stereo in doubt; (-)-16b) has measured pIC50 not below 7. Thanks!
label 0

Data origin, for the record: ChEMBL document CHEMBL1146809
